tested on: RXF 631; experiment: NCI tumour cell line growth inhibition, 48 h
Calls of active or inactive are those of the source. Rule as the data show it: active = GI50 up to about 1.1 µM and inactive = higher.
Hello, when you answer, please use one of the following outcomes: active, inactive

Please review the following examples before continuing.
INSERT INTO results (compound, qualitative_label) VALUES
  ('O=C1c2ccccc2C(=O)N1C/C=N/NS(=O)(=O)c1ccc(F)cc1', 'inactive'),
  ('COC(=O)C1=C2CCC(=O)[C@@]2(C)C(OC(C)=O)C=CC1 (some centres not stated)', 'inactive'),
  ('COc1cccc2c1C(=O)c1c(O)c3c(c(O)c1C2=O)C[C@@](O)(C(=O)CO)C[C@@H]3OC1CC(N)CC(C)O1 (some centres not stated)', 'active');

GET /call?item= Cc1nc(Nc2ccc(Cl)cc2)sc1C(=O)NNC(=S)NN returns the recorded outcome of this test.
inactive

GET /call?item= Clc1cc2n[se]nc2cc1Cl returns the recorded outcome of this test.
inactive

GET /call?item= Cc1ccc2c(c1)C1(OC(=O)c3ccccc31)c1ccc(F)cc1O2 (configuration not stated) returns the recorded outcome of this test.
inactive

GET /call?item= CCc1ccccc1NC(=O)C(=O)C(C(=O)c1ccc(OC)cc1)c1ccc(OC)cc1 (configuration not stated) returns the recorded outcome of this test.
inactive

GET /call?item= [N-]=[N+]=NC1C(Cl)C(=O)NC(=O)N1[C@H]1C[C@H](O)[C@@H](CO)O1 (some centres not stated) returns the recorded outcome of this test.
inactive

GET /call?item= CN(c1nc(=[N+](C)C)ss1)C1CCCCC1 returns the recorded outcome of this test.
inactive

GET /call?item= COC(=O)C(C(=O)C(=O)Nc1ccc([N+](=O)[O-])cc1)c1nc2ccc([N+](=O)[O-])cc2nc1O (configuration not stated) returns the recorded outcome of this test.
inactive

GET /call?item= COC(=O)C1=CC2CC1C(S(=O)(=O)c1ccccc1)C2S(=O)(=O)c1ccccc1 (configuration not stated) returns the recorded outcome of this test.
inactive

GET /call?item= C=CCNC1=NC(=O)C(CC(=O)Nc2cccc(Cl)c2)S1 (configuration not stated) returns the recorded outcome of this test.
inactive

GET /call?item= CCCCCCCCCCCCC(O)C1CCC(C(O)CCCCC(O)CCCCCC2CC(CC(C)=O)C(=O)O2)O1 (configuration not stated) returns the recorded outcome of this test.
inactive

GET /call?item= Cc1ccccc1NC(=O)CC(=O)N1N=C(N2c3ccccc3Sc3ccccc32)CC1c1ccccc1 (configuration not stated) returns the recorded outcome of this test.
inactive

GET /call?item= Nc1nc2c(ncn2C2OC(CO)C(O)C2O)c(=O)o1 (configuration not stated) returns the recorded outcome of this test.
inactive

GET /call?item= CN(OC(=O)CC(=O)c1ccccc1)C(=O)Cc1ccccc1 returns the recorded outcome of this test.
inactive

GET /call?item= CC(=O)OC[C@]1(O)CC[C@@]23CC1C[C@@H]2CCC1C(C)(C)CCC[C@@]13C (some centres not stated) returns the recorded outcome of this test.
inactive

* * *

system: SF-295; assay: NCI tumour cell line growth inhibition, 48 h
Calls of active or inactive are those of the source. No stated cut-off is given here; in the data, active = GI50 up to about 1.1 µM and inactive = higher.
Measure: GI50

INSERT INTO assay_data (compound, test_system, data_value) VALUES
  ('Cn1c(=O)c2c(nc(N/N=C3/SCC(=O)N3Cc3ccccc3)n2C)n(C)c1=O', 'SF-295', '> 100 µM (inactive)'),
  ('C=CCC1(C)CCCN(Cc2ccccc2)C1=O (stereo unspecified)', 'SF-295', '> 10 µM (inactive)'),
  ('O=P(O)(OCC(O)O)OCC(O)O', 'SF-295', '> 100 µM (inactive)');

Would you kindly share the measured GI50 for Cc1ccc(S(=O)(=O)N2CCC3(C(/C=C/c4ccccc4)=Nc4ccccc43)C2c2ccccc2)cc1 (stereo unspecified) ?
> 100 µM (inactive)

Would you kindly share the measured GI50 for CC(=O)Oc1c2oc3ccc(Cl)cc3c(=O)c2c(O)c2ccsc12 ?
> 100 µM (inactive)

Would you kindly share the measured GI50 for Cc1cc(C)c(N[S+]([O-])c2cccc([N+](=O)[O-])c2)c(C)c1 (stereo unspecified) ?
> 100 µM (inactive)

Would you kindly share the measured GI50 for COc1ccc(NC(=O)CC(=O)n2nc(C)c(/N=N/c3ccccc3C(=O)O)c2C)cc1 ?
> 100 µM (inactive)

Would you kindly share the measured GI50 for C=CCCCCCC(O)C(O)C/C=C\C/C=C\CC (stereo unspecified) ?
> 18.8 µM (inactive)

Would you kindly share the measured GI50 for CSc1nc(NC(=O)O)c(N(C(C)=O)C(=O)O)c(=O)n1C ?
> 100 µM (inactive)

Would you kindly share the measured GI50 for CC(C)CC(NC(=O)C(O)C(N)Cc1ccccc1)C(=O)O (stereo unspecified) ?
> 100 µM (inactive)

Would you kindly share the measured GI50 for CCCCN1C(=O)C2Cc3c([nH]c4ccccc34)C(c3cccc(O)c3)N2C1=O (stereo unspecified) ?
17.4 µM (inactive)

Ref: ChEMBL document CHEMBL1201862
